system: MELJUSO; assay: cells; assay type: cell-based; settings: Homo sapiens, MEL-JUSO, 72 h
parameter: IC50

// CN(C)C(=O)c1cc2cnc(Nc3ccc(N4CCNCC4)cn3)nc2n1C1CCCC1 [Ribociclib] : IC50 value = > 10 µM

* * *

system: panel of nearly 500 cancer cell lines; experiment: Cancer Cell Line Encyclopedia profiling, 3-day CellTiter-Glo; format: cell-based; details: ncih1573 (lung); read-out: IC50
parameter: IC50

The compound CC(=O)c1c(C)c2cnc(Nc3ccc(N4CCNCC4)cn3)nc2n(C2CCCC2)c1=O [Palbociblib] , tested on panel of nearly 500 cancer cell lines, showed IC50 of > 8 µM
